- protocolSummary: solubility of spacer moiety measured as dialcohol precursor
- Assay type: physicochemical
- assayConditions: dodecyl spacer measured as dialcohol precursor; water solubility
assayEndpoint: solubility

## Input Item under review: OCCCCCCCCCCCCO [1,12-dihydroxydodecane] . Reported solubility?
## Output < 5000 µg/mL

----------
- Tested on: human PBMC cells
- protocolSummary: human PBMC assay: IFN-γ and IFN-α in cell-free medium by ELISA
- Format: cell-based
- assayConditions: donor 17243; test samples 20 μg/ml, 24 hours; '+ PLGA' = premixed with 100 μg/ml cPLGA; SAC 1/5000 dilution
Consider the following substances; for each one, report its IFN-α (pg/ml) 17243.
Answers are plain numbers, in pg/mL.

## Input State the recorded IFN-α (pg/ml) 17243 for this entry: (5′-TCGACGT3′-HEG)2-(T-C6 brancher)-HEG-5′-TCGACGT-3′ [B07 (#2)]
## Output 520

Provide IFN-α (pg/ml) 17243 values for the following items, in order.
1. (5′-TCGACGT-3′-HEG)3-trebler-HEG-5′-TCGACGT-3′ [C-125]
2. (5′-TCGACGT-3′-HEG)2-symmetrical doubler-HEG-5′-TCGACGT-3′ [C-124]
3. (5′-TAGTCAT-HEG)3-trebler-HEG-5′-TAGTCAT-3′ [M-102]
4. (5′-TAGTCAT-3′-HEG)2-symmetrical doubler-HEG-5′-TAGTCAT-3′ [M-101]

## Output
[309, 249, 30, 30]
